Target: UniProt P30613
Sequence (P30613 whole entry): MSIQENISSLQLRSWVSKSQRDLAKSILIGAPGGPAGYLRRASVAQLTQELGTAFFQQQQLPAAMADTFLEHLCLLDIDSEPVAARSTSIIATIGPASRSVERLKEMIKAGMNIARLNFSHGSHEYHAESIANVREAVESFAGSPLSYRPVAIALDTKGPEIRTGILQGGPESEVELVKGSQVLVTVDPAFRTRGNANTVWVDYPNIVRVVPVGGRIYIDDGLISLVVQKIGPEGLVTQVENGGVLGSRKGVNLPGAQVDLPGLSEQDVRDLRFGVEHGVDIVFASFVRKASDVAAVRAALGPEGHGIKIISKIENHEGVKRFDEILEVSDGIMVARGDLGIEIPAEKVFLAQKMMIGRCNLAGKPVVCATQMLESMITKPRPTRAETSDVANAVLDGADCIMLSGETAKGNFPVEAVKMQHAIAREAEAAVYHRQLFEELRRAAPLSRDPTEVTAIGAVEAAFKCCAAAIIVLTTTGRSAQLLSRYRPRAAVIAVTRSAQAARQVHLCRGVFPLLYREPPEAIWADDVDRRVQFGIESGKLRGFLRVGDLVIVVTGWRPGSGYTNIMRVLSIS
Assay: PKR WT enzymatic AC50 assay
Type: biochemical
Settings: wild type PKR
Method: • PKR or PKR mutant enzyme solution was diluted in assay buffer. • 2 μL of test compound was added into wells first, and then 180 μL reaction mix was added. • Reactions mixture with test compound was assembled except for ADP, and plates were stored for 60 minutes at room temperature. • 20 uL ADP was added to start reaction at room temperature and reaction progress was measured as changes in absorbance at 340 nm wavelength at room temperature. […]
Listed below: AC50 values for each entry.

The examples below pair each entry with its known result.
| COMPOUND | AC50 |
| --- | --- |
| CC(F)(F)CC1(O)CCN(C(=O)c2ccc(NS(=O)(=O)c3cccc4scnc34)cc2)CC1 [Compound 413] | 101 to 1000 nM |
| Nc1nc2c(S(=O)(=O)Nc3ccc(C(=O)N4CCC(O)(c5ccccc5Cl)CC4)cc3)cc(F)cc2s1 [Compound 154] | < 100 nM |
| O=C(c1ccc(NS(=O)(=O)c2ccc(C(F)(F)F)cc2)cc1)N1CCC(O)(Cc2ccccc2)CC1 [Compound 321] | > 10000 nM |

GET /values?item= O=C(c1ccc(NS(=O)(=O)c2cccc3scnc23)cc1)N1CCC(O)(CCC(F)=C(F)F)CC1 [Compound 395] &system= UniProt P30613 returns AC50: < 100 nM

GET /values?item= C=C(C)CC1(O)CCN(C(=O)c2ccc(NS(=O)(=O)c3cccc4scnc34)cc2)CC1 [Compound 181] &system= UniProt P30613 returns AC50: < 100 nM
